Source of measurements: paper doi:10.1101/2024.07.10.602929

molecular target: T1, GABARAPL1 Y49A/L50A (human, UniProt Q9H0R8 1-117, Y49A | L50A); experiment: BLI; Octet Red 96; N-terminally biotinylated peptides immobilised on High Precision Streptavidin (SAX) biosensors; purified hATG8 proteins as analyte in increasing concentrations; steady-state evaluation, one-site binding model; individual measurements unless stated otherwise; conditions: both partners purified
T1 construct: GABARAPL1, human, full-length (unprocessed) version with Y49A and L50A; everywhere else Y49A/L50A; also called GABARAPL1_(Y49A/L59A); source: E. coli BL21(DE3), pGEX-4-T2, purified (Glutathione Sepharose 4B, thrombin cleavage, SEC)
T1 sequence (Q9H0R8 whole entry Y49A/L50A): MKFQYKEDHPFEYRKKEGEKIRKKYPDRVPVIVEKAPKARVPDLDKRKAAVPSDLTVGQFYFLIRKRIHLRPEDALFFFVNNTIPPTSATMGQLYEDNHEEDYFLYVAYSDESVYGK
Where no end group is shown, it is not given here. The star is where a group is joined. Biotin = O=C1N[C@H]2[C@H](CS[C@H]2CCCCC(=O)*)N1
readout-type: pKd
Please report pKd as the negative decimal logarithm of the molar concentration, giving only the number.

The reported value for Biotin-ISQKSDEEDFVKVED (peptide, UniProt Q15154 1954-1968, looked up, Pericentriolar material 1 protein (PCM1), LIR motif, residues 1954-1968; source: synthetic peptide, bought: CASLO (≥95% purity)) [PCM1 LIR peptide (pericentriolar material 1 protein residues 1954-1968), N-terminally biotinylated] in terms of pKd is 3.56
